- Tested on: OVCAR-8 ovarian
- ASSAY_NAME: NCI tumour cell line growth inhibition, 48 h
READOUT_TYPE: GI50

For Cc1nn(Cc2ccccc2)cc1C(=O)Nc1sc2c(c1C(N)=O)CCC(=O)C2 , what is its reported GI50? 3.27 µM

Request the reported GI50 associated with CC(=O)CCc1ccc(Oc2c3c(nc4ccccc24)OCC3)cc1 3.76 µM

State the recorded GI50 for this entry: CN(C)c1cc2c(Nc3ccc4c(cnn4Cc4ccccc4)c3)ncnc2cn1 9.13 µM

Param item = O=C(N=Nc1c(Cl)c(O)c2ccccc2c1O)C(=O)Nc1cccc(C(F)(F)F)c1 ; retrieve measured GI50. 3.39 µM

// returns reported GI50 for input CC(C)(O)CCc1cccc(C(=O)c2cnn(-c3ccc(F)cc3)c2N)c1 > 25 µM

Which measured GI50 value corresponds to c1cc(C2CCCCC2)ccc1-c1cnc2nonc2n1 ? 1.38 µM

Dear colleague, I am looking for the recorded GI50 of the following compound: C#CCOc1cccc(Nc2ncnc3cc(NC(=O)C=C)ccc23)c1 7.72 µM

Report GI50 for Cc1cc2c3c([n+](C)c4ccc(F)cc4c3c1)-c1cc(F)ccc1N2C please. 15.2 µM

Sample CC(=O)O[C@@H]1C2=C(C)C3(CC3)[C@@](C)(O)C(=O)C2=C[C@@]1(C)CO — what was its GI50? 0.427 µM

Query: GI50; subject: CC1=NN(c2cccc(Cl)c2)C(=O)/C1=C\C=C\c1ccccc1 2.63 µM

---

- Tested on: T-47D breast
- ASSAY_NAME: NCI tumour cell line growth inhibition, 48 h
READOUT_TYPE: TGI

Item under review: O=C1CC(Cc2n[nH]c3c2CCCC3)CC(=O)N1 . Reported TGI? > 100 µM

Requested field: TGI. Item: CC(C)OC(=O)C1(C(C)C)CCc2ccc(C(=O)CCC(=O)O)cc21 (centres undefined) > 100 µM

What value of measured TGI is listed for Cc1ccc(Nc2nc(=O)c3c([nH]c4ccccc43)s2)cc1 ? 43.7 µM

Quick one: TGI of CSc1ncc2c(C#N)c3[nH]c4ccccc4n3c(=O)c2n1 ? > 100 µM

What value of TGI has been recorded for this entry: COc1ccc(C[C@@H](C(=O)O[C@H](C)[C@H](NC(=O)[C@@H](CC(C)C)N(C)C(=O)C2CCCN2C(=O)[C@H](C)O)C(=O)N2CCCCNC(=O)[C@@H](C)C(=O)[C@H](C(C)C)OC(=O)C[C@H](O)[C@H]2CC(C)C)N(C)C(C)=O)cc1 (some centres undefined) > 50 µM

I would be grateful if you could share the reported TGI for CC(=O)O[C@@H]1C2=C(C)C3(CC3)[C@@](C)(O)C(=O)C2=C[C@@]1(C)CO . 7.03 µM

May I ask what TGI has been recorded for C[C@H]1COCCN1c1nc(-c2cnc(N)cc2C(F)F)nc(N2CCOCC2)n1 ? 0.181 µM

Find the recorded TGI belonging to O=c1[nH]nc(-c2ccccc2)n1-c1cccc([N+](=O)[O-])c1 and report it. > 100 µM

Need TGI, item Cc1c(Cl)cccc1NC(=O)c1sc2nc3c(cc2c1N)C(=O)CCC3 > 100 µM

---

- System: MDA-N
- ASSAY_NAME: NCI tumour cell line growth inhibition, 48 h
So I've got a bunch of compounds here, and I need their TGI values.
Field: numeric (µM). Do not append units.

Fill in: TGI of Cc1ccc(C(C)C)c(OCC(=O)N/N=C/c2c[nH]c3ccc(Br)cc23)c1 is ___ 2.94

# TGI lookup, item CCCCCCCCCC(=O)NC(CCC(=O)N(CCNC(=O)c1nc(-c2ccccc2)oc1-c1ccccc1)Cc1ccccc1)C(=O)O (centres undefined) 36.4

So what does the record say about TGI for N#C/C(=C\c1ccc([N+](=O)[O-])o1)c1n[nH]c(Cc2ccccc2)n1 ? 4.52

Can you share its TGI? I mean this compound: Cc1ccc2c(c1)C=CC1(O2)N(c2ccccc2)C(=S)OC1(C)C (centres undefined) 94.3

---

So I've got a bunch of compounds here, and I need their TGI values.
- Test system: SW-620 colon
- ASSAY_NAME: NCI tumour cell line growth inhibition, 48 h

Would you kindly share the measured TGI for O=C1CC(Cc2n[nH]c3c2CCCC3)CC(=O)N1 ? > 100 µM

If you can, please state the reported TGI value of Cc1cc(-c2nc3n(c2/C=N/N=C(N)N)CCS3)c(C)s1 . 35 µM

Which TGI is listed for CNn1c(-c2ccc(C)cc2)n[nH]c1=O ? > 100 µM

Report TGI for O=C(N=Nc1c(Cl)c(O)c2ccccc2c1O)C(=O)Nc1cccc(C(F)(F)F)c1 please. 15.6 µM

Field request: TGI | item: Cc1ccc2c(n1)NC(=O)C(Cc1ccccc1)(N=[N+]=[N-])C2=O (stereo not given) > 100 µM

Query (compound): COCCNCc1ccc(-c2cc3nccc(Oc4ccc(NC(=O)C5(C(=O)Nc6ccc(F)cc6)CC5)cc4F)c3s2)nc1 ; field requested: TGI 3.27 µM

Which TGI value is on record for Cc1ccc(C)n2c1nc1cc3ccccc3cc12 ? > 100 µM

Please report the recorded TGI for O=[N+]([O-])c1ccc(C2SCc3nc4ccccc4n32)cc1 (stereo not given) . > 100 µM

Requested read-out: TGI. Entry: Cc1cc(Cl)nc(N(CCCNc2ccnc3cc(Cl)ccc23)Cc2cccs2)n1 8.75 µM

Value lookup for TGI; key = NNC(=O)CCc1ccc2ccc3ccccc3c2c1 > 100 µM

Fill blank: measured TGI of the compound CC(=O)O[C@@H]1C2=C(C)C3(CC3)[C@@](C)(O)C(=O)C2=C[C@@]1(C)CO is ____. > 100 µM

Could you tell me which TGI is on file for CN(C)CCNC(=O)c1cccc2c1Oc1cccc([N+](=O)[O-])c1O2 ? 46.2 µM

Item CC(C)(C)C1=CC(=C2C=Cc3cc(O)ccc3O2)C=C(C(C)(C)C)C1=O has what recorded TGI? 3.48 µM

For the compound shown here, CCOC(=O)CC(=O)Nc1cccc2sc3ncccc3c(=O)c12 , give the reported TGI. > 100 µM

Can you look up the measured TGI of O=C(Nc1ccc([N+](=O)[O-])cc1[N+](=O)[O-])C(=O)C(C(=O)c1ccc(Cl)c(Cl)c1)C1OC(=O)c2ccccc21 (stereo not given) for me? 54.6 µM

May I ask what TGI has been recorded for CN(CCCN1C(=O)c2cccc3cc([N+](=O)[O-])cc(c23)C1=O)CCN(C)CCCN1C(=O)c2cccc3cc([N+](=O)[O-])cc(c23)C1=O ? > 39.3 µM

Quick check: TGI of CC1=CC(C)(C)Nc2ccc(Cc3ccc4c(c3)C(C)=CC(C)(C)N4)cc21 ? 25.5 µM

Which TGI reading was recorded for the compound CN(/N=C/C=N/N(C)C1=NCCCN1)C1=NCCCN1 ? > 100 µM

Which TGI value is on record for O=NN1CCN=C1c1ccc([N+](=O)[O-])cc1 ? > 100 µM

Any idea what TGI was measured for CCCCCCc1cc2cc(-c3cn4c(n3)sc3ccccc34)c(=O)oc2cc1O ? > 100 µM

// returns reported TGI for input Cc1cccc2c1Sc1ccccc1C2NC(=O)CN(C)C (stereo not given) > 100 µM

For the compound C[C@@H](NC(=O)Cn1c(Cl)nc2ccccc21)c1ccccc1 , what TGI is on record? > 100 µM

Fill blank: measured TGI of the compound CC1=NN(C(=O)CC(=O)NC(=O)/C=C\c2ccccc2)C(=O)C1N=Nc1ccc([N+](=O)[O-])cc1 (stereo not given) is ____. > 100 µM

Reported TGI for CO[C@@H]1C[C@H]2[C@@H]3CC[C@H]([C@H](C)COC(C)=O)[C@@]3(C)CC[C@@H]2[C@@]2(C)CC[C@H]3C[C@]312 : what is it? > 100 µM

Fill blank: measured TGI of the compound Cn1c2c(c3ccccc3c1=O)C(=O)c1ccccc1-2 is ____. > 100 µM

Entry Cc1ccc(C(C)C)c(OCC(=O)N/N=C/c2c[nH]c3ccc(Br)cc23)c1 : reported TGI = ? 18.6 µM

Would you kindly share the measured TGI for C/C(O)=C(\C=NC(=S)c1cccnc1)C(=O)Nc1ccccc1C ? > 100 µM

TGI lookup needed for Cn1cc(C2=C(c3cc[nH]c3)C(=O)NC2=O)c2ccccc21 , thanks. > 25 µM

Entry COc1ccc(/C=C2\Sc3nnc(-c4ccccc4)n3N=C2c2cc(F)c(Cl)cc2Cl)cc1OC has what TGI? 92 µM

Need TGI, item O=[N+]([O-])C(C(Cl)=C(Cl)Cl)=C(n1nnc2ccccc21)n1nnc2ccccc21 16.6 µM

Requested field: TGI. Item: S=c1[nH]n2c(COc3ccc(Cl)cc3)nnc2s1 > 100 µM

Which TGI value belongs to c1cc(C2CCCCC2)ccc1-c1cnc2nonc2n1 ? 2.45 µM

Look up TGI: COc1cccc(N2CCN(c3ncnc4cc[nH]c34)CC2)c1 > 100 µM

What does the data say about its TGI? Entry: [Cl][Hg][c]1ccc2ccccc2c1 3.62 µM

Reported TGI for O=C(O)/C(Cl)=C(Cl)/C=N/NC(=O)c1cc2ccccc2cc1O : what is it? > 100 µM

Report TGI for COc1ccc(C[C@@H](C(=O)O[C@H](C)[C@H](NC(=O)[C@@H](CC(C)C)N(C)C(=O)C2CCCN2C(=O)[C@H](C)O)C(=O)N2CCCCNC(=O)[C@@H](C)C(=O)[C@H](C(C)C)OC(=O)C[C@H](O)[C@H]2CC(C)C)N(C)C(C)=O)cc1 (stereo not given in full) please. 28.4 µM

Endpoint output: TGI of C[C@H](c1ccccc1)n1c(N)c(-c2nc3ccccc3s2)c2ccc([N+](=O)[O-])cc2c1=O . Value? > 100 µM

Need TGI of C[C@]12CC(C=O)C(=O)C(O)=C1CC[C@@H]1C2CC[C@@]2(C)C1CC[C@]2(C)O (stereo not given in full) , thanks. > 100 µM

Fill in: TGI of C#CCOc1cccc(Nc2ncnc3cc(NC(=O)C=C)ccc23)c1 is ___ 27.8 µM

Fill in the blank: the reported TGI of COC(=O)C12C34C=CC5(CCC6(C=CC1(CC3)O6)C52C(=O)OC)O4 (stereo not given) is ____. > 100 µM
